- Tested on: SNB-78
- Protocol details: NCI tumour cell line growth inhibition, 48 h
The source made the active and inactive calls. Rule as the data show it: active = GI50 up to about 1.1 µM and inactive = higher.
In this section, each of the compounds is paired with its reported GI50.

Please review the following examples before continuing.
[
  {
    "Compound": "CC1=NN(C(=O)Nc2ccccc2)C(=O)C2CCC(=O)N12 (stereo unspecified)",
    "Target or test system": "SNB-78",
    "Result type": "GI50",
    "Result": "> 100 µM (inactive)"
  },
  {
    "Compound": "CCOC(=O)/C=C(/CN1C(=O)c2ccccc2C1=O)c1ccccc1",
    "Target or test system": "SNB-78",
    "Result type": "GI50",
    "Result": "88.9 µM (inactive)"
  },
  {
    "Compound": "CCCNC(=O)C(C)(Cl)C(=O)c1ccccc1O (stereo unspecified)",
    "Target or test system": "SNB-78",
    "Result type": "GI50",
    "Result": "> 100 µM (inactive)"
  },
  {
    "Compound": "O=c1[nH]cc(COCC(O)CO)c(=O)[nH]1 (stereo unspecified)",
    "Target or test system": "SNB-78",
    "Result type": "GI50",
    "Result": "> 100 µM (inactive)"
  },
  {
    "Compound": "COc1ccc(C(=O)C(c2ccc(OC)cc2)C2(O)C(=O)Nc3c(C)cc(Cl)cc32)cc1 (stereo unspecified)",
    "Target or test system": "SNB-78",
    "Result type": "GI50",
    "Result": "> 100 µM (inactive)"
  },
  {
    "Compound": "Cc1c2ccncc2cc2c1[nH]c1ccccc12",
    "Target or test system": "SNB-78",
    "Result type": "GI50",
    "Result": "13 µM (inactive)"
  },
  {
    "Compound": "Cc1cc(N(CCC#N)S(=O)(=O)c2ccccc2)ccc1/C=N\\c1cccc(C(=O)O)c1",
    "Target or test system": "SNB-78",
    "Result type": "GI50",
    "Result": "> 100 µM (inactive)"
  },
  {
    "Compound": "CCCCCCCCCCCCCC(=O)CBr",
    "Target or test system": "SNB-78",
    "Result type": "GI50",
    "Result": "14.2 µM (inactive)"
  }
]

Prompt line: Find GI50 (SNB-78) for the entry C=CCc1ccc(O)c(-c2cc(C3Oc4c(-c5cc(CC=C)ccc5O)cc(O)cc4[C@@H]3CO)ccc2O)c1 (stereo partly specified)
Response line: 39.9 µM (inactive)

Prompt line: Find GI50 (SNB-78) for the entry CCC(C)(C)n1c(C)nc2c1C(=O)c1ccccc1C2=O
Response line: 46.5 µM (inactive)

The reported measurements were obtained from ChEMBL document CHEMBL1201862.
